Data origin, for the record: paper PMC6017705

System: SUM-159
protocol.text: Cell viability assay (CCK-8), SUM-159
Assay type: cell-based, human
particulars: TNBC cell line; CCK-8, 72 h, 0.156 to 40 μM
measurement.type: IC50 (µM)

1) COc1ccc(S(=O)(=O)Nc2cc3c(C(=O)O)c(C)oc3c3ccccc23)cc1: 24.2
